# System Name: recombinant human GST-Syk (Homo sapiens, UniProt P43405)
# Procedure Summary: Homogeneous Time-Resolved Fluorescence (HTRF) assay for the recombinant human Syk enzyme
# Test Parameters: recombinant human GST-Syk 5 pM, ATP 25 μM, 45 min at rt, read-out: rhSyk
pIC50: −log10 of the molar value.
If the reported pIC50 equals or exceeds 10, assign condition met. If not, assign condition not met.

In: Quick check: does Cc1cc(Nc2cc(C(C)F)ccn2)nc(-c2cnc(C3(O)CCCc4cc(C(=O)O)ccc43)s2)c1 (single isomer, unassigned) [Example 8A] have pIC50 greater than or equal to 10?
Out: condition not met

In: Tell me whether pIC50 is at least 10 here: Cc1cc(Nc2cc(-c3cn[nH]c3)ccn2)nc(-c2cnc(C3(O)CCCc4cc(C(=O)O)ccc43)s2)c1 (single isomer, unassigned) [Example 4B-1]
Out: condition not met

In: Check this molecule for pIC50 at or above 10: Cc1cc(Nc2cc(C(F)(F)F)ccn2)nc(-c2cnc(C3(O)CCCc4cc(C(=O)O)c(Br)cc43)s2)c1 (single isomer, unassigned) [Example 1A]
Out: condition not met

In: # bool: pIC50 of Cc1cc(Nc2cc(C(C)F)ccn2)nc(-c2cnc([C@@]3(O)CCc4cc(C(=O)O)ccc43)s2)c1 (single isomer, unassigned) [Example 2J] >= 10
Out: condition met

In: Hi team, for `CCOc1ccnc(Nc2cc(C)cc(-c3cnc([C@@]4(O)CCc5cc(C(=O)O)ccc54)s3)n2)c1` , is the recorded pIC50 at or above 10?
Out: condition not met

In: Is the recorded value of pIC50 equal to or greater than 10 for this molecule? Cc1cc(Nc2cc(C(F)(F)F)ccn2)nc(-c2cnc(C3(O)CCc4cc(C(=O)O)c(F)cc43)s2)c1 (single isomer, unassigned) [Example 1D]
Out: condition not met

In: Has `CCCc1ccnc(Nc2cc(C)cc(-c3cnc([C@@]4(O)CCCc5cc(C(=O)O)ccc54)s3)n2)c1` a recorded pIC50 greater than or equal to 10?
Out: condition not met

In: Determine whether this molecule has pIC50 no lower than 10: Cc1cc(Nc2cc(C(F)(F)F)ccn2)nc(-c2cnc(C3(O)CCCc4c3ccc(C(=O)O)c4F)s2)c1 (single isomer, unassigned) [Example 1J]
Out: condition met

----------
# System Name: recombinant human GST-Syk (Homo sapiens, UniProt P43405)
# Procedure Summary: Homogeneous Time-Resolved Fluorescence (HTRF) assay for the recombinant human Syk enzyme
# Test Parameters: recombinant human GST-Syk 5 pM, ATP 25 μM, 45 min at rt, read-out: rhSyk
# Description: Homogeneous Time-Resolved Fluorescence (HTRF) Assay for the Recombinant Human Syk Enzyme A recombinant GST-hSyk fusion protein was used to measure potency of compounds to inhibit human Syk activity. […] The resulting HTRF signal was measured after 30 minutes on a EnVision (Perkin-Elmer) reader using a time-resolved fluorescence protocol. […]
Endpoint Name: pIC50
In textbook form, pIC50 equals minus log to base ten of the concentration in mol/L.

Observe how each entry below is paired with its result.
Cc1cc(Nc2cc(C(F)(F)F)ccn2)nc(-c2cnc(C3(O)CCCc4cc(C(=O)O)c(Cl)cc43)s2)c1 (single isomer, unassigned) [Example 1F]: 9.77
Cc1ccnc(Nc2cc(C)cc(-c3cnc([C@@]4(O)CCc5cc(C(=O)O)ccc54)s3)n2)c1 [Example 2A]: 9.82
Cc1cc(Nc2cc(C(C)F)ccn2)nc(-c2cnc(C3(O)CCCc4cc(C(=O)O)ccc43)s2)c1 (single isomer, unassigned) [Example 8D]: 10.00
CCc1ccnc(Nc2cc(C)cc(-c3cnc([C@@]4(O)CCc5cc(C(=O)O)ccc54)s3)n2)c1 [Example 2B]: 9.77
CCCc1ccnc(Nc2cc(C)cc(-c3cnc([C@@]4(O)CCc5cc(C(=O)O)ccc54)s3)n2)c1 [Example 3D]: 10.10

With those in mind, consider the next molecule.
In: For Cc1cc(Nc2cc(C(C)F)ccn2)nc(-c2cnc(C3(O)CCCc4cc(C(=O)O)ccc43)s2)c1 (single isomer, unassigned) [Example 8B] , what is its reported pIC50?
Out: 10.00

Reference source for all entries: patent US20150284381A1
